Experiment: Quantitative High-Throughput drug screen in 47 multiple myeloma cell lines against the NCATS MIPE library collection: XG1_PLB cell viability assay (AID 1919866); further: nearly all actives have a fitted effect of over 35% in size
Conditions: CellTiter-Glo ATP, 48 h; series mostly up to 45.8 µM
Results filed as inconclusive are left out. The source made the active and inactive calls. The call rests on the fitted dose curve; in most records, active means well fitted cell-killing curve with a large enough effect; inconclusive means small, poorly fitted or top-dose-only effect, or effect the other way; inactive means no such curve, though single readings can be large or run the other way.
Labels: active, inactive

compound="CC(N)C12CC3CC(CC(C3)C1)C2 (configuration not stated)" qualitative_label=inactive
compound="CCN1CCCC1CNC(=O)c1cc(S(N)(=O)=O)ccc1OC (configuration not stated)" qualitative_label=inactive
compound=N[C@@H](Cc1ccc(O)c(O)c1)C(=O)O qualitative_label=inactive
compound=C#CCN[C@@H]1CCc2ccccc21 qualitative_label=inactive
compound=Nc1ccc(S(=O)(=O)Nc2ccccn2)cc1 qualitative_label=inactive
compound="CN1CCCC(n2nc(Cc3ccc(Cl)cc3)c3ccccc3c2=O)CC1 (configuration not stated)" qualitative_label=active
compound=COc1ccc2cc3[n+](cc2c1OC)CCc1cc2c(cc1-3)OCO2 qualitative_label=active
